Values were extracted from ChEMBL document CHEMBL1275300.

Measured IC50, listed per entry.
# Test system: Mycobacterium tuberculosis
# assay_info: Antimicrobial activity against Mycobacterium tuberculosis H37Rv ATCC 27294 by microplate alamar blue assay
# Type: functional, organism-based
I only need the number, in µg/mL, no unit after it.

>  <compound>
C#CCn1nc(-c2ccc(Cl)cc2)ccc1=O

>  <target_entity>
Mycobacterium tuberculosis

>  <observed_measurement>
34.7

$$$$
>  <compound>
C=CCn1nc(-c2ccc(C)cc2)ccc1=O

>  <target_entity>
Mycobacterium tuberculosis

>  <observed_measurement>
60.7

$$$$
>  <compound>
C#CCn1nc(-c2ccc(C)cc2)ccc1=O

>  <target_entity>
Mycobacterium tuberculosis

>  <observed_measurement>
63.7

$$$$
>  <compound>
CCOC(=O)C(C)n1nc(-c2ccc(C)cc2)ccc1=O (stereo not drawn)

>  <target_entity>
Mycobacterium tuberculosis

>  <observed_measurement>
64.9

$$$$

Returns the measured IC50 for the input compound. Input: C=CCn1nc(-c2ccc(Cl)cc2)ccc1=O
36.6

Recorded IC50 for CCOC(=O)C(C)n1nc(-c2ccc(Br)cc2)ccc1=O (stereo not drawn) , please?
26.8

Need IC50, item C=CCn1nc(-c2ccc(Br)cc2)ccc1=O
37.8

Which IC50 reading was recorded for the compound CCOC(=O)C(C)n1nc(-c2ccc(Cl)cc2)ccc1=O (stereo not drawn) ?
28.6

Request the reported IC50 associated with COC(=O)Cn1nc(-c2ccc(Br)cc2)ccc1=O
73.2

// query IC50 value for entry C#CCn1nc(-c2ccc(Br)cc2)ccc1=O
97.8

Recorded IC50 of COC(=O)Cn1nc(-c2ccc(Cl)cc2)ccc1=O , please.
94.2
